Biological target: T1, human LAG3-Fc (R&D Systems #2319-L3) (human, UniProt P18627 23-450)
T1 construct: Bought protein; also called Human LAG3 (Biacore)
T1 sequence: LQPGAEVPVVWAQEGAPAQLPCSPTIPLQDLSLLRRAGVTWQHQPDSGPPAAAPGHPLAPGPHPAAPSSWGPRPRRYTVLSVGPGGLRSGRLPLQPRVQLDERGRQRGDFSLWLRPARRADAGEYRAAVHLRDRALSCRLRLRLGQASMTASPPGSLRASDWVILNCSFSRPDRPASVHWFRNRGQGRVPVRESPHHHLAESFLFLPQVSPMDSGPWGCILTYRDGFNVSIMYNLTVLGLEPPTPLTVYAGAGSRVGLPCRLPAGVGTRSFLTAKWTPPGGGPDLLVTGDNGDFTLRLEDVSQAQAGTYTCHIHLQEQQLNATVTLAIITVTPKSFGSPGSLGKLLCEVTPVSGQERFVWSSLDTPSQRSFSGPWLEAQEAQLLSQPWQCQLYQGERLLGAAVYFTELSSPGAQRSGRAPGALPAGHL
Experiment: SPR (Biacore), antibody captured by anti-Flag, LAG3-Fc as analyte, 25 C
Metric: kon (M⁻¹ s⁻¹)
The figure you give is taken to be in M⁻¹ s⁻¹; do not add the unit.

Binder	Numeric result
SRP1627-A02 (scFv, V domains shown) VH: QVQLVQSGAEVKKPGSSVKVSCKASGFNINDYFMHWVRQAPGQGLEWIARIDPWNGDTEYAPKFQGRVTITADESTSTAYMELSSLRSEDTAVYYCGMSDALDYWGQGTLVTVSS VL: DVVMTQSPLSLPVTLGQPASISCKSSQSLLDSDGKTYLNWFQQRPGQSPRRLIYLVSKLDSGVPDRFSGSGSGTDFTLKISRVEAEDVGVYYCSHGNPVPQTFGQGTKVEIK	1.64e+06
SRP1627-B01 (scFv, V domains shown) VH: QVQLVQSGAEVKKPGSSVKVSCKASGFNITDLYMHWVRQAPGQGLEWIARIDPWNGDTEYAPKFQGRATITADESTSTAYMELSSLRSEDTAVYYCIASEMVDYWGQGTLVTVSS VL: DVVMTQSPLSLPVTLGQPASISCKSSQSLLDSDGKTYLNWFQQRPGQSPRRLIYLVSKLDSGVPDRFSGSGSGTDFTLKISRVEAEDVGVYYCSTYSHFPQTFGQGTKVEIK	1.04e+06
SRP1627-A11 (scFv, V domains shown) VH: QVQLVQSGAEVKKPGSSVKVSCKASGFNINDYFMHWVRQAPGQGLEWIARIDPWNGDTEYAPKFQGRVTITADESTSTAYMELSSLRSEDTAVYYCGMSDALDYWGQGTLVTVSS VL: DVVMTQSPLSLPVTLGQPASISCKSSQSLLDSDGKTYLNWFQQRPGQSPRRLIYLVSKLDSGVPDRFSGSGSGTDFTLKISRVEAEDVGVYYCWHGINFPQTFGQGTKVEIK	312000
h5G11-2 (scFv, V domains shown) VH: QVQLVQSGAEVKKPGSSVKVSCKASGFNIKDYYMHWVRQAPGQGLEWIAWIDPENGDTEYAPKFQGRVTITADESTSTAYMELSSLRSEDTAVYYCNAPDALDYWGQGTLVTVSS VL: DVVMTQSPLSLPVTLGQPASISCKSSQSLLDSDGKTYLNWFQQRPGQSPRRLIYLVSKLDSGVPDRFSGSGSGTDFTLKISRVEAEDVGVYYCWQGSHFPQTFGQGTKVEIK	2670

Now for a further binder.
Provide measured kon value, entry: SRP1449-B03 (scFv, V domains shown) VH: QVQLVESGGGVVQPGRSLRLSCAASGFTFSSYGMHWVRQAPGKGLEWVAAIWYDASYKYYADSVKGRFTISRDNSKNTLYLQMNSLRAEDTAVYYCAREWAVASWDYALDVWGQGTTVTVSS VL: EIVLTQSPGTMSLSPGERATLSCRASQSVSSSYLAWYQQKPGQAPRLLIYGASSRATGIPDRFSGSGSGTDFTLTISRLEPEDFAVYYCQQYDRSPLTFGPGTKVDIK
472000
